Data origin: the supplement of paper PMC13386468

experimental_system: UniProt Q8IL86
test: IC50 for competition of protein binding to Kinobeads;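 note: native unpurified kinases from lysate captured on beads bearing immobilized kinase inhibitors, with bead-bound kinases quantified by mass spectrometry across compound doses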
setup_conditions: assay detail: Kinobeads competition in P. falciparum blood-stage lysate
readout_name: IC50

**Query** State, in one line, measured IC50 of O=c1[nH]c2ccc(Cl)cc2c(NC2CN3CCC2CC3)c1-c1nc2ccccc2[nH]1 (stereo unspecified) [CHIR-124]
**Result** > 20 µM

---

experimental_system: UniProt Q8IB31
test: IC50 for competition of protein binding to Kinobeads
setup_conditions: assay detail: Kinobeads competition in P. falciparum blood-stage lysate
readout_name: IC50

**Query** State, in one line, measured IC50 of O=c1[nH]c2ccc(Cl)cc2c(NC2CN3CCC2CC3)c1-c1nc2ccccc2[nH]1 (stereo unspecified)
**Result** > 20 µM

---

experimental_system: UniProt Q8I5D2
Sequence (Q8I5D2 whole entry): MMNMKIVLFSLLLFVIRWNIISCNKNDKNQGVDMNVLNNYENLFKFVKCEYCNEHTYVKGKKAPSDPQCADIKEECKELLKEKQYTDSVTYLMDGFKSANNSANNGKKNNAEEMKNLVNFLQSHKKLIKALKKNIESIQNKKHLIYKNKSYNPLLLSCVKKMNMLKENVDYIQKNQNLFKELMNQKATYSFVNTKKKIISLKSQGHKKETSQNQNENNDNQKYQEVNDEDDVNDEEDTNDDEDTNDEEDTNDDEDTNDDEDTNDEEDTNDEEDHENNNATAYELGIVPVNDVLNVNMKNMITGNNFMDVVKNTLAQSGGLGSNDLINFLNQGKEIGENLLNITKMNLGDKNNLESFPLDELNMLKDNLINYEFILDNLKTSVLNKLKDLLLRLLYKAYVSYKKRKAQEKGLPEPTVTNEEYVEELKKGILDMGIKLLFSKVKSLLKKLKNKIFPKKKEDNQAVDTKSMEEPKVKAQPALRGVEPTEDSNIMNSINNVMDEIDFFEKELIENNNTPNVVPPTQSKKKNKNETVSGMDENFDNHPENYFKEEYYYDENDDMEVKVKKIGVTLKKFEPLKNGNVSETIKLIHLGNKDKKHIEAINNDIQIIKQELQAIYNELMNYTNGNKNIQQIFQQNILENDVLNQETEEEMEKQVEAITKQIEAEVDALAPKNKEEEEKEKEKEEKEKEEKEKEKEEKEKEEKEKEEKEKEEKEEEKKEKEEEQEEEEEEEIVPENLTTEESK
test: IC50 for competition of protein binding to Kinobeads
setup_conditions: assay detail: Kinobeads competition in P. falciparum blood-stage lysate
readout_name: IC50

**Query** Return reported IC50 for target or system UniProt Q8I5D2, item O=c1[nH]c2ccc(Cl)cc2c(NC2CN3CCC2CC3)c1-c1nc2ccccc2[nH]1 (stereo unspecified) [CHIR-124] .
**Result** > 20 µM

---

experimental_system: UniProt Q8IAX5
test: IC50 for competition of protein binding to Kinobeads
setup_conditions: assay detail: Kinobeads competition in P. falciparum blood-stage lysate
readout_name: IC50

**Query** State, in one line, measured IC50 of O=c1[nH]c2ccc(Cl)cc2c(NC2CN3CCC2CC3)c1-c1nc2ccccc2[nH]1 (stereo unspecified)
**Result** > 20 µM

---

experimental_system: UniProt Q8IEH3
test: IC50 for competition of protein binding to Kinobeads
setup_conditions: assay detail: Kinobeads competition in P. falciparum blood-stage lysate
readout_name: IC50

**Query** State, in one line, measured IC50 of O=c1[nH]c2ccc(Cl)cc2c(NC2CN3CCC2CC3)c1-c1nc2ccccc2[nH]1 (stereo unspecified)
**Result** > 20 µM

---

experimental_system: UniProt Q8IJ34
test: IC50 for competition of protein binding to Kinobeads
setup_conditions: assay detail: Kinobeads competition in P. falciparum blood-stage lysate
pIC50: −log10 of the molar value.
readout_name: pIC50

**Query** State, in one line, measured pIC50 of O=c1[nH]c2ccc(Cl)cc2c(NC2CN3CCC2CC3)c1-c1nc2ccccc2[nH]1 (stereo unspecified) [CHIR-124]
**Result** < 4.70

---

experimental_system: UniProt Q8IKW5
test: IC50 for competition of protein binding to Kinobeads
setup_conditions: assay detail: Kinobeads competition in P. falciparum blood-stage lysate
readout_name: IC50

**Query** State, in one line, measured IC50 of O=c1[nH]c2ccc(Cl)cc2c(NC2CN3CCC2CC3)c1-c1nc2ccccc2[nH]1 (stereo unspecified)
**Result** > 20 µM

---

experimental_system: UniProt Q8I431
test: IC50 for competition of protein binding to Kinobeads
setup_conditions: assay detail: Kinobeads competition in P. falciparum blood-stage lysate
readout_name: IC50

**Query** State, in one line, measured IC50 of O=c1[nH]c2ccc(Cl)cc2c(NC2CN3CCC2CC3)c1-c1nc2ccccc2[nH]1 (stereo unspecified)
**Result** > 20 µM

---

experimental_system: UniProt Q8IFP2
test: IC50 for competition of protein binding to Kinobeads
setup_conditions: assay detail: Kinobeads competition in P. falciparum blood-stage lysate
readout_name: IC50

**Query** State, in one line, measured IC50 of O=c1[nH]c2ccc(Cl)cc2c(NC2CN3CCC2CC3)c1-c1nc2ccccc2[nH]1 (stereo unspecified)
**Result** > 20 µM
